Molecular target: Recombinant human FKBP12 (Homo sapiens, UniProt P62942)
Construct: made in house
Sequence (P62942 whole entry): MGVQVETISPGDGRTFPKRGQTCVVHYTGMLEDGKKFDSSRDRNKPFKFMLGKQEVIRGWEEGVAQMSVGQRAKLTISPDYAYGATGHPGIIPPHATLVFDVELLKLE
Experiment: Electrospray ionization mass spectrometry (ESI-MS) binding assay
Settings: 50°C; 100 μM ligand, 5 μM FKBP12, 10% methanol, pH 6.8; read-out: ESI-MS Kd^app
pKd: −log10 of the molar value.
outcomeMeasure: pKd

pKd for CC(=O)Nc1ccccc1NC(=O)CCc1ccccc1 [Compound 4] is 3.55

Kindly note the recorded pKd for CC(NC(=O)c1ccccc1)C(O)c1ccccc1 (centres unmarked) [Compound 2] , which is 3.40

GET /value?item= O=C(NCC(O)c1ccccc1)c1cccc(Cl)c1 (centres unmarked) [Compound 3] &field=pKd returns 3.42

A: O=C(CNC(=O)c1ccccc1C(=O)O)c1ccccc1 [Compound 1, 2-(phenacylcarbamoyl)benzoic acid]
B: Cc1ccc(SCC(=O)N2CCOCC2)cc1 [Compound Q2, 1-morpholino-2-(p-tolylsulfanyl)ethanone, reference compound]
Between these two entries, A and B , state which has the higher pKd. // respond with label for picked entry
B

----------
Biological target: HEK-293 cells transfected with human 11β-HSD1 (Homo sapiens, UniProt P28845)
Construct: HEK-293 cells stably transfected with the full length human hsd11b1 gene
Sequence (P28845 whole entry): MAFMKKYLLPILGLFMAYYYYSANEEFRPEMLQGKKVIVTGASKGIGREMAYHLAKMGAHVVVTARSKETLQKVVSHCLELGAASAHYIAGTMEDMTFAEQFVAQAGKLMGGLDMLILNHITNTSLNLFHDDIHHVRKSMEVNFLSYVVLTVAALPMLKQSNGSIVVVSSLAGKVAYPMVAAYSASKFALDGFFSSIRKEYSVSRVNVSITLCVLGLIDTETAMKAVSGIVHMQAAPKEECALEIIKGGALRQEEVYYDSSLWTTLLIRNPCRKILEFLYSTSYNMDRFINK
Assay: Scintillation proximity assay (SPA), inhibition of 11β-HSD1 reductase activity in cells
Conditions: conversion of cortisone to cortisol; 40 nM [3H]-cortisone, 1% DMSO
outcomeMeasure: IC50 (µM)

The compound identified as COc1ccc(C(=O)CSc2ccccn2)cc1 [Compound 8] registered its IC50 at 0.067

1: COc1ccc(/C=C/C(=O)/C=C/c2ccc(OC)c(OC)c2)cc1OC [Compound 5]
2: COc1ccc2[nH]c(SCC(=O)c3ccc(O)c(O)c3)nc2c1 [Compound 7]
# query: argmin of IC50 over 1 and 2 Give the label under which the chosen entry appears.
2
(2: 7.9 µM, 1: 11.3 µM)

----------
Target: Recombinant human FKBP12 (Homo sapiens, UniProt P62942)
Construct: made in house
Test: Thermal denaturation fluorescence (TDF) binding assay
Details: value in brackets, transformed to 25°C using a benchmark enthalpy of ligand binding of -5 kcal/mol; read-out: TDF Kd^app (transformed 25°C) (converted)
outcomeMeasure: Kd (µM)

Answered examples (3):
molecule CC(=O)Nc1ccccc1NC(=O)CCc1ccccc1 , Kd observed: 303

Value of Kd reported for the molecule O=C(CNC(=O)c1ccccc1C(=O)O)c1ccccc1 is 252

response.value for O=C(NCC(O)c1ccccc1)c1cccc(Cl)c1 (centres unmarked) (field: Kd) = 263

P: CC(NC(=O)c1ccccc1)C(O)c1ccccc1 (centres unmarked)
Q: Cc1ccc(SCC(=O)N2CCOCC2)cc1 [Compound Q2, 1-morpholino-2-(p-tolylsulfanyl)ethanone, reference compound]
I would appreciate it if you could say which entry, P or Q , has the lower Kd value. The response must carry the label of the picked entry.
Q

----------
Molecular target: Recombinant human FKBP12 (Homo sapiens, UniProt P62942)
Construct: made in house
Test: Thermal denaturation fluorescence (TDF) binding assay
Conditions: at the mid-point melting temperature Tm; 10 μM FKBP12, 250 μM compound, pH 7.0; read-out: TDF Kd^app at Tm
outcomeMeasure: Kd (µM)

O=C(NCC(O)c1ccccc1)c1cccc(Cl)c1 (centres unmarked) on Recombinant human FKBP12 (Homo sapiens, UniProt P62942) gives Kd = 568

// compound O=C(CNC(=O)c1ccccc1C(=O)O)c1ccccc1 , assay Recombinant human FKBP12 (Homo sapiens, UniProt P62942), Kd value: 548

# lookup: CC(=O)Nc1ccccc1NC(=O)CCc1ccccc1 on Recombinant human FKBP12 (Homo sapiens, UniProt P62942), Kd = 648

P: Cc1ccc(SCC(=O)N2CCOCC2)cc1 [Compound Q2, 1-morpholino-2-(p-tolylsulfanyl)ethanone, reference compound]
Q: CC(NC(=O)c1ccccc1)C(O)c1ccccc1 (centres unmarked)
Hey, between P and Q which has a smaller measured Kd? Please identify the chosen entry by its label.
P
